# system-tested: T1, AAV8
# T1 construct: also called adeno-associated virus serotype 8
# protocol-summary: SPR, AAV on CM5 chip;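 also: surface plasmon resonance with AAV amine-coupled to the chip as ligand, nanobodies injected as analyte over a concentration series, rate constants and affinity fitted from binding curves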
Field: label. Allowed values: 1 (yes) (kon < 100000 M⁻¹ s⁻¹) or 0 (no) (kon >= 100000 M⁻¹ s⁻¹).

# binder, answer-label
records = [
    ("A4-021 (VHH) VHH: VQLQESGGGLVQAGGSLRLSCAASGSTFSINTMGWYRQAPGKQRELVATITRGGNTNYADSVKGRFTISRDNAKNTVYLQMNSLRPEDTAVYYCHVDEVRQSSWTTSNIWGQGTQVTVSS", "0 (no)"),
    ("A4-031 (VHH) VHH: VQLQESGGGLVQPGGSLRLSCAASGSGFSINTMGWYRQAPGKQRELVATVTSAGSTNYAGSVKGRFTISRDNAKNTVYLQMNSLRPEDTAVYYCHVDEIRQSSWTTSNLWGQGTQVTVSS", "1 (yes)"),
    ("A4-025 (VHH) VHH: VQLQESGGGLVQPGGSLRLSCAASGSNFRINTMGWYRQAPGKQRELVATVTRGGSTNYADSVKGRFTISRDNPKDTVYLQMNSLRPEDTAVYYCHVDEVRESSWTTSNLWGQGTQVTVSS", "0 (no)"),
]

Ask: Strictly below 100000 M⁻¹ s⁻¹ in kon? A4-035 (VHH) VHH: VQLQESGGGLVQAGGSLRLSCAASGRGFSINTMGWYRQAPGKQRELVAAVTRGGTTNYADSVKGRFTISRDNAKNTVYLQMNSLRPEDTAVYYCHVDEVRQSSWTTSNLWGQGTQVTVSS
Reply: 0 (no)

Ask: How about A4-046 (VHH) VHH: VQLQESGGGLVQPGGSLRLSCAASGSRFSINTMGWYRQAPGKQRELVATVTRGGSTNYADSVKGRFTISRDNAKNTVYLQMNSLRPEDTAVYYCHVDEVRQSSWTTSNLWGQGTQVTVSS ?
Reply: 0 (no)
